The values you see were collected from the CombiSolv-Exp solvation set (Vermeire and Green 2021).

Please go through the items and note down their solvation free energy, 298 K.
- Assay Text: solvent given as SMILES
- Test Parameters: in O
Numbers only, in kcal/mol.

Some solved entries appear below for comparison.
{"columns": ["Compound", "solvation free energy, 298 K / kcal/mol"],
 "data": [
  ["COC(=O)c1cc([N+](=O)[O-])cc([N+](=O)[O-])c1", -8.92],
  ["CN(C)CCOC(c1ccccc1)c1ccccc1", -9.34],
  ["CCCCC(=O)CC", -3.04],
  ["CCC(CC)CC", 2.61],
  ["Oc1ccc(Cl)cc1", -7.04],
  ["CN1CCCC1c1cccnc1 (stereo not drawn)", -7.98],
  ["OC1COC(O)C(O)C1O (stereo not drawn)", -20.5],
  ["C1COCCOCCOCCOCCOCCO1", -15.6],
  ["CCC(N)=O", -9.4],
  ["CCOCCOCC", -3.54]
]}

Provide solvation free energy, 298 K values for the following items, in order.
1. C[N+](=O)[O-]
2. CCCC(C)(C)C
3. CC1=CCC(=C(C)C)CCC(C)=CCC1
4. BrCBr
5. Cc1ccc(O)c(C)c1
6. CC1=CCC23C(C)CCC(C(C)C)C2C13 (stereo not drawn)
7. Oc1ccccc1I

Result string:
1: -4.03; 2: 2.88; 3: -0.37; 4: -2.01; 5: -6.02; 6: 0.56; 7: -6.21

Summary for this compound, "CN(C)C=O" : solvation free energy, 298 K is -7.77
